Molecular target: Endothelin receptor type B (Rattus norvegicus)
Sequence (P21451 whole entry): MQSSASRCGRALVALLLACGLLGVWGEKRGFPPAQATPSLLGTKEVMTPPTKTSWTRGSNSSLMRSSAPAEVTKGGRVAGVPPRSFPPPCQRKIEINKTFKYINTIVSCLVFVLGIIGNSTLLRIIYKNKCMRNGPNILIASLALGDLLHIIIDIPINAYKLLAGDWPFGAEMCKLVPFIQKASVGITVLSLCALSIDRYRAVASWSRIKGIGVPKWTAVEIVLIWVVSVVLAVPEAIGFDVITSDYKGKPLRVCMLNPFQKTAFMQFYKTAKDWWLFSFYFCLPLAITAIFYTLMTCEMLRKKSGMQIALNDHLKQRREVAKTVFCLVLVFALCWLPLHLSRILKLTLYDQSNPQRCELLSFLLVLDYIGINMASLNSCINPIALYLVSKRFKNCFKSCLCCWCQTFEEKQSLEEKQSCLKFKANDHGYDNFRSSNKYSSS
Assay: Binding affinity against Endothelin B receptor in rat cerebellar membrane (ET-B) from adult blue laurie rat
Format: cell membranes, Cerebellum
Where a SMILES comes first, the peptide text is derived from it. Bridges are numbered along the chain shown (N, C = ends). [ ]: non-standard residue; d: D form. Aoc = NCCCCCCCC(=O)O
Below, each entry is listed with its recorded IC50.
RESULT TYPE: IC50 (nM)

COMPOUND: CC[C@H](C)[C@H](NC(=O)[C@H](CC(=O)O)NC(=O)[C@H](CC(C)C)NC(=O)[C@H](Cc1c[nH]cn1)NC(=O)[C@@H]1CSSC[C@H](N)C(=O)N[C@@H](C(C)C)C(=O)N[C@@H](Cc2ccc(O)cc2)C(=O)N[C@@H](Cc2ccccc2)C(=O)N1)C(=O)N[C@H](C(=O)N[C@@H](Cc1c[nH]c2ccccc12)C(=O)O)[C@@H](C)CC (H-CVYFCHLDIIW-OH; disulfide 1-5)
SYSTEM TESTED: Endothelin receptor type B (Rattus norvegicus)
VALUE UNIT: nM
ASSAY VALUE: 1700
//
COMPOUND: CC[C@H](C)[C@H](NC(=O)[C@H](CC(=O)O)NC(=O)[C@H](CC(C)C)NC(=O)[C@H](Cc1c[nH]cn1)NC(=O)[C@@H]1CSSC[C@H](N)C(=O)N[C@@H](CO)C(=O)N[C@@H](C(C)C)C(=O)N[C@@H](Cc2ccc(O)cc2)C(=O)N[C@@H](Cc2ccccc2)C(=O)N1)C(=O)N[C@H](C(=O)N[C@@H](Cc1c[nH]c2ccccc12)C(=O)O)[C@@H](C)CC (H-CSVYFCHLDIIW-OH; disulfide 1-6)
SYSTEM TESTED: Endothelin receptor type B (Rattus norvegicus)
VALUE UNIT: nM
ASSAY VALUE: 1700
//
COMPOUND: CC[C@H](C)[C@H](NC(=O)[C@H](CC(=O)O)NC(=O)[C@H](CC(C)C)NC(=O)[C@H](Cc1cnc[nH]1)NC(=O)[C@@H]1CSSC[C@H](N)C(=O)N[C@@H](CO)C(=O)NCCCCCCCC(=O)N[C@@H](C(C)C)C(=O)N[C@@H](Cc2ccc(O)cc2)C(=O)N[C@@H](Cc2ccccc2)C(=O)N1)C(=O)N[C@H](C(=O)N[C@@H](Cc1c[nH]c2ccccc12)C(=O)O)[C@@H](C)CC (H-CS[Aoc]VYFCHLDIIW-OH; disulfide 1-7)
SYSTEM TESTED: Endothelin receptor type B (Rattus norvegicus)
VALUE UNIT: nM
ASSAY VALUE: 240
//
COMPOUND: CC[C@H](C)[C@H](NC(=O)[C@H](CC(=O)O)NC(=O)[C@H](CC(C)C)NC(=O)[C@H](Cc1c[nH]cn1)NC(=O)[C@@H]1CSSC[C@H](N)C(=O)N[C@@H](CO)C(=O)N[C@@H](CC(=O)O)C(=O)N[C@@H](CCCCN)C(=O)N[C@@H](CCC(=O)O)C(=O)N[C@@H](C(C)C)C(=O)N[C@@H](Cc2ccc(O)cc2)C(=O)N[C@@H](Cc2ccccc2)C(=O)N1)C(=O)N[C@H](C(=O)N[C@@H](Cc1c[nH]c2ccccc12)C(=O)O)[C@@H](C)CC (H-CSDKEVYFCHLDIIW-OH; disulfide 1-9)
SYSTEM TESTED: Endothelin receptor type B (Rattus norvegicus)
VALUE UNIT: nM
ASSAY VALUE: 1100
//
COMPOUND: CC[C@H](C)[C@H](NC(=O)[C@H](CC(=O)O)NC(=O)[C@H](CC(C)C)NC(=O)[C@H](Cc1c[nH]cn1)NC(=O)[C@@H]1CSSC[C@H](N)C(=O)N[C@@H](CO)C(=O)N[C@@H](CO)C(=O)N[C@@H](CO)C(=O)N[C@@H](C(C)C)C(=O)N[C@@H](Cc2ccc(O)cc2)C(=O)N[C@@H](Cc2ccccc2)C(=O)N1)C(=O)N[C@H](C(=O)N[C@@H](Cc1c[nH]c2ccccc12)C(=O)O)[C@@H](C)CC (H-CSSSVYFCHLDIIW-OH; disulfide 1-8)
SYSTEM TESTED: Endothelin receptor type B (Rattus norvegicus)
VALUE UNIT: nM
ASSAY VALUE: 60
//
COMPOUND: CC[C@H](C)[C@H](NC(=O)[C@H](CC(=O)O)NC(=O)[C@H](CC(C)C)NC(=O)[C@H](Cc1c[nH]cn1)NC(=O)[C@@H]1CSSC[C@H](N)C(=O)N[C@@H](CO)C(=O)N[C@@H](CO)C(=O)N[C@@H](C(C)C)C(=O)N[C@@H](Cc2ccc(O)cc2)C(=O)N[C@@H](Cc2ccccc2)C(=O)N1)C(=O)N[C@H](C(=O)N[C@@H](Cc1c[nH]c2ccccc12)C(=O)O)[C@@H](C)CC (H-CSSVYFCHLDIIW-OH; disulfide 1-7)
SYSTEM TESTED: Endothelin receptor type B (Rattus norvegicus)
VALUE UNIT: nM
ASSAY VALUE: 1400

Values were extracted from ChEMBL document CHEMBL1127771.
